Sourced from patent US20240208969A1

# measured-on: PARP2 (Homo sapiens, UniProt Q9UGN5)
# Sequence (Q9UGN5 whole entry, species assumed): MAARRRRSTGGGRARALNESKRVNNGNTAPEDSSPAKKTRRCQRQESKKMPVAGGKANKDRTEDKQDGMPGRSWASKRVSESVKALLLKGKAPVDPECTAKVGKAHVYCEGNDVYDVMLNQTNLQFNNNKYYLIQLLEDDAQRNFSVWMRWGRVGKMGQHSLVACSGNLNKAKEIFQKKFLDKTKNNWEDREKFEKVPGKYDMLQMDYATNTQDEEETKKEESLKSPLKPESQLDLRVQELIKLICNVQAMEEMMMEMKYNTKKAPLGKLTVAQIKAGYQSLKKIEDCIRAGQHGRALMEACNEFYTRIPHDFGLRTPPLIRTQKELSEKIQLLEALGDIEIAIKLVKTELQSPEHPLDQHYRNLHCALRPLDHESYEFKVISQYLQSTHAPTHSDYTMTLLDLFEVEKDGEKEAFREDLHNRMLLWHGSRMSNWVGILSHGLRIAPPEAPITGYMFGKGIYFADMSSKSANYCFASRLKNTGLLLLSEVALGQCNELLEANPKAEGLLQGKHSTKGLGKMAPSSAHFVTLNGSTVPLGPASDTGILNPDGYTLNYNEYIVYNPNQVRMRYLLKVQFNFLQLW
# assay-method-text: PARP2 chemiluminescent assay
# Format: biochemical
# experimental-context: recombinant PARP2 enzyme activity, chemiluminescence
reported-property: IC50

Example entries and their recorded answers appear below.
>  <structure-notation>
CCN1Cc2ccc(CN3CCN(c4ccc(C(=O)NC)nc4C)CC3)cc2NC1=O

>  <measured-on>
PARP2 (Homo sapiens, UniProt Q9UGN5)

>  <IC50>
> 1000 nM

$$$$
>  <structure-notation>
CNC(=O)c1ccc(N2CCN(Cc3cnc4c(=O)n(C(C)C)c(=O)[nH]c4c3)CC2)cn1

>  <measured-on>
PARP2 (Homo sapiens, UniProt Q9UGN5)

>  <IC50>
> 1000 nM

$$$$
>  <structure-notation>
CCn1c(=O)[nH]c2cc(CN3CCN(c4ccc(C(=O)NC)nc4Cl)CC3)ccc2c1=O

>  <measured-on>
PARP2 (Homo sapiens, UniProt Q9UGN5)

>  <IC50>
10 to 100 nM

$$$$

With those in mind, consider the next compound.
Task: Dear colleague, please send me the reported IC50 for CCn1c(=O)[nH]c2cc(CN3CCN(c4ccc(C(=O)NC)cn4)CC3)ccc2c1=O when you can.
Result: 100 to 1000 nM

---

# measured-on: PARP2 (Homo sapiens)
# assay-method-text: PARP2 chemiluminescent assay
# Assay type: biochemical
# experimental-context: recombinant PARP2 enzyme activity, chemiluminescence
Each entry below lists one item and its recorded IC50 value.

Examples with answers:
>  <structure-notation>
CCn1c(=O)[nH]c2cc(CN3CCN(c4ccc(C(=O)NC)nn4)CC3)ccc2c1=O

>  <endpoint-value>
100 to 1000 nM

$$$$
>  <structure-notation>
CCN1Cc2ccc(CN3CCN(c4ccc(C(=O)NC)nc4Cl)CC3)cc2NC1=O

>  <endpoint-value>
> 1000 nM

$$$$

Next up:
Task: Give IC50 for the following compound: CCn1c(=O)[nH]c2cc(CN3CCN(c4ccc(C(=O)NC)nc4Cl)CC3)cnc2c1=O
Result: > 1000 nM
